Each recorded value in this set is attributed to patent US10016515B2.

experiment: Tissue bio-distribution and tissue pharmacokinetics of DMA; format: in vivo, mouse; details: Balb/c, mouse, spleen; 100 mg/kg oral dose; read-out: Half life, Spleen (converted)
property_name: half-life (h)

INSERT INTO assay_data (compound, property_name, unit_label, test_result) VALUES
  ('COc1ccc(-c2nc3cc(-c4nc5cc(N6CCN(C)CC6)ccc5[nH]4)ccc3[nH]2)cc1OC [DMA]', 'half-life', 'h', 4.2);

###

experiment: Tissue bio-distribution and tissue pharmacokinetics of DMA; assay type: in vivo, mouse; conditions: Balb/c, mouse, lung, iv; i.v. 50 mg/kg, 2 h; read-out: Tissue DMA concentration, Lung
property_name: concentration at 2 h

INSERT INTO results (molecular_string, test_result) VALUES
  ('COc1ccc(-c2nc3cc(-c4nc5cc(N6CCN(C)CC6)ccc5[nH]4)ccc3[nH]2)cc1OC', '2340 ng/g');

###

assay: Tissue bio-distribution and tissue pharmacokinetics of DMA; assay type: in vivo, mouse; details: Balb/c, mouse, liver; Oral 100 mg/kg, 4 h; read-out: Tissue DMA concentration, Liver
property_name: concentration at 4 h (ng/g)

INSERT INTO assay_data (molecular_string, test_result) VALUES
  ('COc1ccc(-c2nc3cc(-c4nc5cc(N6CCN(C)CC6)ccc5[nH]4)ccc3[nH]2)cc1OC', 2230);

###

assay: Tissue bio-distribution and tissue pharmacokinetics of DMA; format: in vivo, mouse; settings: Balb/c, mouse, kidney; Oral 100 mg/kg, 16 h; read-out: Tissue DMA concentration, Kidney
property_name: concentration at 16 h (ng/g)

INSERT INTO results (molecular_string, property_name, unit_label, test_result) VALUES
  ('COc1ccc(-c2nc3cc(-c4nc5cc(N6CCN(C)CC6)ccc5[nH]4)ccc3[nH]2)cc1OC', 'concentration at 16 h', 'ng/g', 193);

###

experiment: Tissue bio-distribution and tissue pharmacokinetics of DMA; assay type: in vivo, mouse; details: Balb/c, mouse, spleen, intravenous; 50 mg/kg i.v.; read-out: Concentration achieved in spleen
property_name: concentration at 6 h

INSERT INTO results (molecular_string, test_result) VALUES
  ('COc1ccc(-c2nc3cc(-c4nc5cc(N6CCN(C)CC6)ccc5[nH]4)ccc3[nH]2)cc1OC', '12100 ng/g');

###

experiment: Tissue bio-distribution and tissue pharmacokinetics of DMA; assay type: in vivo, mouse; details: Balb/c, mouse, liver; Oral 100 mg/kg, 2 h; read-out: Tissue DMA concentration, Liver
property_name: concentration at 2 h (ng/g)

INSERT INTO measurements (compound, unit_label, test_result) VALUES
  ('COc1ccc(-c2nc3cc(-c4nc5cc(N6CCN(C)CC6)ccc5[nH]4)ccc3[nH]2)cc1OC [DMA]', 'ng/g', 415);

###

assay: Plasma pharmacokinetics of DMA; type: in vivo, mouse; settings: Balb/c, mouse, plasma; 100 mg/kg oral
property_name: half-life

INSERT INTO results (molecular_string, property_name, test_result) VALUES
  ('COc1ccc(-c2nc3cc(-c4nc5cc(N6CCN(C)CC6)ccc5[nH]4)ccc3[nH]2)cc1OC', 'half-life', '3.5 h');

###

test: Tissue bio-distribution and tissue pharmacokinetics of DMA; type: in vivo, mouse; conditions: Balb/c, mouse, intestine, iv; i.v. 50 mg/kg, 24 h; read-out: Tissue DMA concentration, Intestine
property_name: concentration at 24 h (ng/g)

INSERT INTO results (molecular_string, test_result) VALUES
  ('COc1ccc(-c2nc3cc(-c4nc5cc(N6CCN(C)CC6)ccc5[nH]4)ccc3[nH]2)cc1OC', 1710);

###

assay: Tissue bio-distribution and tissue pharmacokinetics of DMA; format: in vivo, mouse; details: Balb/c, mouse, spleen; Oral 100 mg/kg, 6 h; read-out: Tissue DMA concentration, Spleen
property_name: concentration at 6 h (ng/g)

INSERT INTO measurements (molecular_string, unit_label, test_result) VALUES
  ('COc1ccc(-c2nc3cc(-c4nc5cc(N6CCN(C)CC6)ccc5[nH]4)ccc3[nH]2)cc1OC', 'ng/g', 558);

###

assay: Tissue bio-distribution and tissue pharmacokinetics of DMA; type: in vivo, mouse; settings: Balb/c, mouse, lung; Oral 100 mg/kg, 4 h; read-out: Tissue DMA concentration, Lung
property_name: concentration at 4 h (ng/g)

INSERT INTO assay_data (molecular_string, property_name, test_result) VALUES
  ('COc1ccc(-c2nc3cc(-c4nc5cc(N6CCN(C)CC6)ccc5[nH]4)ccc3[nH]2)cc1OC', 'concentration at 4 h', 1000);

###

assay: Tissue bio-distribution and tissue pharmacokinetics of DMA; format: in vivo, mouse; conditions: Balb/c, mouse, kidney; 100 mg/kg oral dose; read-out: Half life, Kidney (converted)
property_name: half-life (h)

INSERT INTO assay_data (molecular_string, test_result) VALUES
  ('COc1ccc(-c2nc3cc(-c4nc5cc(N6CCN(C)CC6)ccc5[nH]4)ccc3[nH]2)cc1OC', 2.5);

###

test: Tissue bio-distribution and tissue pharmacokinetics of DMA; assay type: in vivo, mouse; settings: Balb/c, mouse, liver; 100 mg/kg oral dose; read-out: Half life, Liver (converted)
property_name: half-life (h)

INSERT INTO measurements (molecular_string, property_name, unit_label, test_result) VALUES
  ('COc1ccc(-c2nc3cc(-c4nc5cc(N6CCN(C)CC6)ccc5[nH]4)ccc3[nH]2)cc1OC', 'half-life', 'h', 4);

###

experiment: Tissue bio-distribution and tissue pharmacokinetics of DMA; type: in vivo, mouse; conditions: Balb/c, mouse, kidney, iv; i.v. 50 mg/kg, 16 h; read-out: Tissue DMA concentration, Kidney
property_name: concentration at 16 h (ng/g)

INSERT INTO results (molecular_string, property_name, test_result) VALUES
  ('COc1ccc(-c2nc3cc(-c4nc5cc(N6CCN(C)CC6)ccc5[nH]4)ccc3[nH]2)cc1OC', 'concentration at 16 h', 263);

###

assay: Tissue bio-distribution and tissue pharmacokinetics of DMA; format: in vivo, mouse; settings: Balb/c, mouse, kidney; Oral 100 mg/kg, 4 h; read-out: Tissue DMA concentration, Kidney
property_name: concentration at 4 h (ng/g)

INSERT INTO assay_data (molecular_string, test_result) VALUES
  ('COc1ccc(-c2nc3cc(-c4nc5cc(N6CCN(C)CC6)ccc5[nH]4)ccc3[nH]2)cc1OC', 1530);

###

assay: Tissue bio-distribution and tissue pharmacokinetics of DMA; assay type: in vivo, mouse; conditions: Balb/c, mouse, kidney; Oral 100 mg/kg, 1 h; read-out: Tissue DMA concentration, Kidney
property_name: concentration at 1 h

INSERT INTO results (molecular_string, test_result) VALUES
  ('COc1ccc(-c2nc3cc(-c4nc5cc(N6CCN(C)CC6)ccc5[nH]4)ccc3[nH]2)cc1OC', '342 ng/g');

###

assay: Tissue bio-distribution and tissue pharmacokinetics of DMA; type: in vivo, mouse; details: Balb/c, mouse, lung, iv; i.v. 50 mg/kg, 1 h; read-out: Tissue DMA concentration, Lung
property_name: concentration at 1 h (ng/g)

INSERT INTO measurements (molecular_string, test_result) VALUES
  ('COc1ccc(-c2nc3cc(-c4nc5cc(N6CCN(C)CC6)ccc5[nH]4)ccc3[nH]2)cc1OC', 109000);

###

experiment: Tissue bio-distribution and tissue pharmacokinetics of DMA; type: in vivo, mouse; settings: Balb/c, mouse, liver, iv; i.v. 50 mg/kg, 1 h; read-out: Tissue DMA concentration, Liver
property_name: concentration at 1 h (ng/g)

INSERT INTO assay_data (molecular_string, unit_label, test_result) VALUES
  ('COc1ccc(-c2nc3cc(-c4nc5cc(N6CCN(C)CC6)ccc5[nH]4)ccc3[nH]2)cc1OC', 'ng/g', 41600);

###

test: Cytotoxicity by MTT assay; type: cell-based, human; conditions: human, MRC5 cells; MRC-5 cells, 24 h
property_name: IC50 at 24 h (µM)

INSERT INTO assay_data (molecular_string, test_result) VALUES
  ('COc1ccc(-c2nc3cc(-c4nc5cc(N6CCN(C)CC6)ccc5[nH]4)ccc3[nH]2)cc1OC', 92.5);

###

experiment: Tissue bio-distribution and tissue pharmacokinetics of DMA; type: in vivo, mouse; conditions: Balb/c, mouse, lung, iv; i.v. 50 mg/kg, 6 h; read-out: Tissue DMA concentration, Lung
property_name: concentration at 6 h (ng/g)

INSERT INTO assay_data (molecule, property_name, test_result) VALUES
  ('COc1ccc(-c2nc3cc(-c4nc5cc(N6CCN(C)CC6)ccc5[nH]4)ccc3[nH]2)cc1OC [DMA]', 'concentration at 6 h', 1340);

###

Experiment: Tissue bio-distribution and tissue pharmacokinetics of DMA
Format: in vivo, mouse
Details: Balb/c, mouse, kidney, iv; i.v. 50 mg/kg, 1 h; read-out: Tissue DMA concentration, Kidney
Protocol: Tissue samples were collected from the same mice from which blood samples were collected in both doses of DMA. […] A standard DMA calibration from 1-1000 ng/ml with internal standard (20 ng/ml) was quantified. […] Peak tissue concentration (Cmax) of DMA and time to reach the Cmax (tmax) were read directly from the raw data by visual examination of mean tissue concentration-time profile. […]
property_name: concentration at 1 h (ng/g)

INSERT INTO assay_data (compound, unit_label, test_result) VALUES
  ('COc1ccc(-c2nc3cc(-c4nc5cc(N6CCN(C)CC6)ccc5[nH]4)ccc3[nH]2)cc1OC [DMA]', 'ng/g', 14900);
